experimental system: Prostaglandin G/H synthase 2 (Homo sapiens, UniProt P35354)
Sequence (P35354 whole entry): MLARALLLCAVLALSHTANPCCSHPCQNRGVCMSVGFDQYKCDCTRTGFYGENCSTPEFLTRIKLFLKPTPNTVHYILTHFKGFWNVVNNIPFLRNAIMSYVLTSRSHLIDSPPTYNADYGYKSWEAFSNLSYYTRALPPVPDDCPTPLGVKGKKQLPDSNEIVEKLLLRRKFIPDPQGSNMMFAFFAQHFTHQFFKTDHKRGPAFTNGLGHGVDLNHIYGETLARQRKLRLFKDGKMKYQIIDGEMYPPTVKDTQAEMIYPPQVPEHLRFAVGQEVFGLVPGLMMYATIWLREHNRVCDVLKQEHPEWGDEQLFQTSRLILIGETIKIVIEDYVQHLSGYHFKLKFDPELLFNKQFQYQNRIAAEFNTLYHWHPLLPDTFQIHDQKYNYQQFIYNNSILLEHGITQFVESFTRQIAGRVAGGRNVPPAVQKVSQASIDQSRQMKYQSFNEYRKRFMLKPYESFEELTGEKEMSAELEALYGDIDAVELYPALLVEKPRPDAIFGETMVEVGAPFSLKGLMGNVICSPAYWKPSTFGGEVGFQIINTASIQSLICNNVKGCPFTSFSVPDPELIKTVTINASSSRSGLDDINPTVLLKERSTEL
method: Inhibition of human recombinant COX2 in cell-free system by enzyme immunoassay
measurement name: IC50

{"columns": ["sample smiles", "reported result"],
 "data": [
  ["CC(C)c1ccc2c(c1)c(SC(C)(C)C)c(CC(C)(C)C(=O)O)n2Cc1ccc(Cl)cc1", "58 µM"]
]}

// provenance: ChEMBL document CHEMBL3352768
